Molecular target: UniProt P36888
Sequence (P36888 whole entry): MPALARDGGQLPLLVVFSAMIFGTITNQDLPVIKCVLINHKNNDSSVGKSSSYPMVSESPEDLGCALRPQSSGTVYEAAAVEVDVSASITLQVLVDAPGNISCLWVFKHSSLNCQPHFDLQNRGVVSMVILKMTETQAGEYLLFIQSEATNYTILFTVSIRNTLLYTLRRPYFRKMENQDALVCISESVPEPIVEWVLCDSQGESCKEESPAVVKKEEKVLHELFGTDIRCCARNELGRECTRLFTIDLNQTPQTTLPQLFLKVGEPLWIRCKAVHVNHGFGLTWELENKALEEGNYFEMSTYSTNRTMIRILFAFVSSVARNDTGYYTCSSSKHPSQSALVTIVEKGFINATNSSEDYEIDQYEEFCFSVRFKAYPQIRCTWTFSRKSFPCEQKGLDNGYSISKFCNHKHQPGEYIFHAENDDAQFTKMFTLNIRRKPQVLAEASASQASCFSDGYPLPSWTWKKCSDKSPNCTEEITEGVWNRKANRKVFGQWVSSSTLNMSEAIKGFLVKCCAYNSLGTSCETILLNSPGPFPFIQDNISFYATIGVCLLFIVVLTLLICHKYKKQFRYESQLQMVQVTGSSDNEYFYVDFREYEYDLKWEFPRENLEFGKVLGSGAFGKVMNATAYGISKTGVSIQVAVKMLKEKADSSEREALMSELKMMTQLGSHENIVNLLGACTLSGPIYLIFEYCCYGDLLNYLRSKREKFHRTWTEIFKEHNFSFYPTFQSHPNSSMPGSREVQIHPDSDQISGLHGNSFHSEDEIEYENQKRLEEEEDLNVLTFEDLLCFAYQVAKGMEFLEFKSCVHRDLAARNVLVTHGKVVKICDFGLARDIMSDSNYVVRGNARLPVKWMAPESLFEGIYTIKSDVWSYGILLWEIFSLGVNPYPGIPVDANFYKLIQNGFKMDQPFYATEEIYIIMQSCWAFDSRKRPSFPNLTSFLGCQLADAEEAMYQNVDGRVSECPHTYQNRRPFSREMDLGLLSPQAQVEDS
Property: pIC50; scope: individual molecules
Please keep in mind that pIC50 is minus log10 of the molar concentration; only the number is needed.

>  <Smiles notation>
O=C1N/C=C/c2ccc(c(Br)c2)Oc2cc(cc(Br)c2O)CCNC(=O)/C(=N/O)Cc2ccc(c(Br)c2)Oc2cc(cc(Br)c2O)C/C1=N\O

>  <Target under test>
UniProt P36888

>  <Number>
5.54

$$$$

Field: pIC50 (UniProt P36888). Entry: O=C(NCCc1ccc(O)c(Br)c1)/C(Cc1cc(Br)c(O)c(-c2cc(C/C(=N/O)C(=O)NCCc3ccc(O)c(Br)c3)cc(Br)c2O)c1)=N\O
5.62

Field: pIC50 (UniProt P36888). Entry: O=C(NCCc1ccc(O)c(Br)c1)/C(Cc1cc(Br)c(O)c(Oc2ccc(CCNC(=O)/C(Cc3cc(Br)c(O)c(-c4cc(C/C(=N\O)C(=O)NCCc5ccc(O)c(Br)c5)cc(Br)c4O)c3)=N/O)cc2Br)c1)=N/O
5.85

Field: pIC50 (UniProt P36888). Entry: O=C1NCCc2cc(Br)c(O)c(c2)Oc2c(Br)cc(cc2Br)CCNC(=O)/C(=N/O)Cc2cc(Br)c(O)c(c2)Oc2c(Br)cc(cc2Br)C/C1=N\O
5.28

---

Molecular target: Proto-oncogene tyrosine-protein kinase Src (Homo sapiens)
Sequence (P12931 2-536 limits assumed): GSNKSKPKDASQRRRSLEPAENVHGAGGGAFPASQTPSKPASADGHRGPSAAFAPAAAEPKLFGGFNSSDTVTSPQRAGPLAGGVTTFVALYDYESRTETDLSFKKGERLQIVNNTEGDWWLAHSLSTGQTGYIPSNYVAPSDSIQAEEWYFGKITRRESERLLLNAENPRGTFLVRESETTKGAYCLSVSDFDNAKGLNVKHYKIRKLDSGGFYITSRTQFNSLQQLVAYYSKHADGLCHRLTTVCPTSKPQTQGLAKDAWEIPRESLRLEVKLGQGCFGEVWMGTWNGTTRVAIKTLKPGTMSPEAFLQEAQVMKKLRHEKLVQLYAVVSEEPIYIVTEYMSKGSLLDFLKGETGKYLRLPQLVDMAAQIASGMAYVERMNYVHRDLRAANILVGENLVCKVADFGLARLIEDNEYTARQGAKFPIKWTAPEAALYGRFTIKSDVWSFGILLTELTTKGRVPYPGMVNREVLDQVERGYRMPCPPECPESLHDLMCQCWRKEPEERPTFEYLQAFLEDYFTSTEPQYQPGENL
Measure name: pIC50
Please keep in mind that pIC50 is minus log10 of the molar concentration; only the number is needed.

>  <Smiles notation>
O=C1N/C=C/c2ccc(c(Br)c2)Oc2cc(cc(Br)c2O)CCNC(=O)/C(=N/O)Cc2ccc(c(Br)c2)Oc2cc(cc(Br)c2O)C/C1=N\O

>  <Number>
5.70

$$$$

Next compound, pIC50 to be filled in.
Field: pIC50 (Proto-oncogene tyrosine-protein kinase Src (Homo sapiens)). Entry: O=C(NCCc1ccc(O)c(Br)c1)/C(Cc1cc(Br)c(O)c(-c2cc(C/C(=N/O)C(=O)NCCc3ccc(O)c(Br)c3)cc(Br)c2O)c1)=N\O
5.72

---

Target: UniProtKB P54760
Sequence (P54760 whole entry): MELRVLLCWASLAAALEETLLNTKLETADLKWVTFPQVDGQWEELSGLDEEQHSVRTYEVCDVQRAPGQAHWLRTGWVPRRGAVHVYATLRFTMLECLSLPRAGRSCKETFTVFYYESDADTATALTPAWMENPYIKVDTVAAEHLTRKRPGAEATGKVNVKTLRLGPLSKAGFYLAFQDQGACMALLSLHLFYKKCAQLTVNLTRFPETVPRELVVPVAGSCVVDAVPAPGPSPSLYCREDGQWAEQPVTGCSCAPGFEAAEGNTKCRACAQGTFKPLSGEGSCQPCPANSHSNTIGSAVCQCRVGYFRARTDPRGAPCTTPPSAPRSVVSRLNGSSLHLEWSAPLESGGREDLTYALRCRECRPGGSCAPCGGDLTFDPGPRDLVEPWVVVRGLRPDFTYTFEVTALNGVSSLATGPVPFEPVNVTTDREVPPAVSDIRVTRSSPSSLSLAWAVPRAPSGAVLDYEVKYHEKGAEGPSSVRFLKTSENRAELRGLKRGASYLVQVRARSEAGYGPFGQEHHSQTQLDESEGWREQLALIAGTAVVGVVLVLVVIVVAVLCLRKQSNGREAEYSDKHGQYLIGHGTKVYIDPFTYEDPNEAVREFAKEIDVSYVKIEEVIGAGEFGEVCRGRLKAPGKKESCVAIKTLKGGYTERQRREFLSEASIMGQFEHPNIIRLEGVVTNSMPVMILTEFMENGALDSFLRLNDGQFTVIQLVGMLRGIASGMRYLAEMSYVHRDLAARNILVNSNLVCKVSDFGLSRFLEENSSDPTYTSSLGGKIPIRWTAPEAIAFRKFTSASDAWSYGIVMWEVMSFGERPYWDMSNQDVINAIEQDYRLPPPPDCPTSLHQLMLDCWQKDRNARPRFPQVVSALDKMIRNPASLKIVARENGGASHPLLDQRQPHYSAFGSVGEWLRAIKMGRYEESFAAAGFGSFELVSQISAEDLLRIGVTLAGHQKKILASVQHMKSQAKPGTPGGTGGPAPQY
Assay: Inhibition of EPHB4 (unknown origin)
Measure name: pIC50
Please keep in mind that pIC50 is minus log10 of the molar concentration; only the number is needed.

May I ask what pIC50 has been recorded for O=C1N/C=C/c2ccc(c(Br)c2)Oc2cc(cc(Br)c2O)CCNC(=O)/C(=N/O)Cc2ccc(c(Br)c2)Oc2cc(cc(Br)c2O)C/C1=N\O [BASTADIN 7] ?
5.11

---

Consider compounds characterized by their pIC50 with Epidermal growth factor receptor (Homo sapiens, UniProt P00533).
Sequence (P00533 whole entry): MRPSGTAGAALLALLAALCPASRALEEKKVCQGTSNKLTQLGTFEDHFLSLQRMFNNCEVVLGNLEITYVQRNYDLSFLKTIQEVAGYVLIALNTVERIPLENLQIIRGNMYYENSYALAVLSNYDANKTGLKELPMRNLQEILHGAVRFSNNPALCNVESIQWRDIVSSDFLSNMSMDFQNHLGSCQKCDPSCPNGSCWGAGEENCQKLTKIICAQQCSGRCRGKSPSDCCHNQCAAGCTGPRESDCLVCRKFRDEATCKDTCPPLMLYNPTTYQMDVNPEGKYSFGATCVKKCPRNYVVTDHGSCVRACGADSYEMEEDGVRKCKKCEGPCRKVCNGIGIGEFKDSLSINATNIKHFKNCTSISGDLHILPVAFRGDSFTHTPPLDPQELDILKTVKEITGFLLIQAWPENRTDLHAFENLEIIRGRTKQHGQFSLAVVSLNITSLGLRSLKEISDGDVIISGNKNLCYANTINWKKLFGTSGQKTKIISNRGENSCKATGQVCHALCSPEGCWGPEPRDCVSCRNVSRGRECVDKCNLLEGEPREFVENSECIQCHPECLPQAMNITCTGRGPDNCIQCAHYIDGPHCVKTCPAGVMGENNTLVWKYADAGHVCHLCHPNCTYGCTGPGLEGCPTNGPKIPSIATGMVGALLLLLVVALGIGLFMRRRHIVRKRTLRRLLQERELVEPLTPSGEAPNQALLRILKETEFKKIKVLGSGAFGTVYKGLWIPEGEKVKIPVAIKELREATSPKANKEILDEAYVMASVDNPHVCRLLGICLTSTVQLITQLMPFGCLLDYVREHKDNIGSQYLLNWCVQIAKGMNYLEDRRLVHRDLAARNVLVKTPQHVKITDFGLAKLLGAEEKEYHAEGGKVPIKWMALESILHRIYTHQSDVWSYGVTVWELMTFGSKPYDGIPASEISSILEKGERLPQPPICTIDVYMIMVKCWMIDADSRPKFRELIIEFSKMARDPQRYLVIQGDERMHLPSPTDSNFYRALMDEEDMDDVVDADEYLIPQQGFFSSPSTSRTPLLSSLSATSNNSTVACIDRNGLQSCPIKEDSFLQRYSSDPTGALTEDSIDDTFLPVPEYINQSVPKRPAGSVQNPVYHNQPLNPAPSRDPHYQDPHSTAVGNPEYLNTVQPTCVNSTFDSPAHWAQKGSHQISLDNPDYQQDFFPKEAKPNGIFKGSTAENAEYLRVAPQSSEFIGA
Please keep in mind that pIC50 is minus log10 of the molar concentration; only the number is needed.

>  <Smiles notation>
O=C1NCCc2cc(Br)c(O)c(c2)Oc2c(Br)cc(cc2Br)CCNC(=O)/C(=N/O)Cc2cc(Br)c(O)c(c2)Oc2c(Br)cc(cc2Br)C/C1=N\O

>  <Number>
5.70

$$$$

Next compound, pIC50 to be filled in.
Field: pIC50 (Epidermal growth factor receptor (Homo sapiens, UniProt P00533)). Entry: O=C1N/C=C/c2ccc(c(Br)c2)Oc2cc(cc(Br)c2O)CCNC(=O)/C(=N/O)Cc2ccc(c(Br)c2)Oc2cc(cc(Br)c2O)C/C1=N\O
5.82
